Source: patent US20230203155A1

target: T1, human ROR1-hFc fusion protein (extracellular domain) (human); test: SPR, human ROR1 ECD-Fc on chip;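 note: SPR binding kinetics of VNAR and VNAR-Fc molecules run at a range of concentrations over immobilised target, rate and affinity constants fitted with QDat software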
T1 construct: Whole entry 'human ROR1-Fc (CHO)'; also called hROR1; huROR1-Fc
T1 sequence (chain, as listed by the source limits assumed): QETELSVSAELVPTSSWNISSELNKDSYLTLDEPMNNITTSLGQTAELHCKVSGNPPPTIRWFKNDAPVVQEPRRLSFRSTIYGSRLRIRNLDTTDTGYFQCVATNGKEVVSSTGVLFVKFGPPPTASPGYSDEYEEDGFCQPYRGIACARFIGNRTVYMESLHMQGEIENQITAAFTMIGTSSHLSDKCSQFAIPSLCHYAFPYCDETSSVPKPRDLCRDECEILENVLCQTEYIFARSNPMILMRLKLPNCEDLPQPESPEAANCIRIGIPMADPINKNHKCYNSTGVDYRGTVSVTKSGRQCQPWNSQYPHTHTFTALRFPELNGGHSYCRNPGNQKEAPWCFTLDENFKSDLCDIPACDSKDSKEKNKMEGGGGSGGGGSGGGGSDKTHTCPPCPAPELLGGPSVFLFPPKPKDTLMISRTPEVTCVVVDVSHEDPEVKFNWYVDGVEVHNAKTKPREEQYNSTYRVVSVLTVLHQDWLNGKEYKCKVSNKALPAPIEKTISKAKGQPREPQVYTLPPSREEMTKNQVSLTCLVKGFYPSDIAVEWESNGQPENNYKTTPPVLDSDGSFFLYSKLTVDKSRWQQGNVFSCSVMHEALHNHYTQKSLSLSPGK
Please provide measured kon for the entries that follow.
Quick note: number first, unit second.

[
  {
    "BINDER": "D3 humanised EL V2 with His6myc tag (VNAR, VNAR; also called D3 EL V2) VNAR: ASVNQSPSSLSASVGDRVTITCVLTDTSYGLYSTSWFRKNPGTTDWERMSIGGRYVESVNKRAKSFTLTISSLQPEDFATYYCKAQSGMAISTGSGHGYNWYDGAGTKVEIKQ",
    "OBSERVED PROPERTY": "kon",
    "EXPERIMENTAL VALUE": "1.85e+06 M⁻¹ s⁻¹"
  }
]

Field: next binder
Given the binder P3A1 G1 dimer (VNAR, humanised VNAR dimer) TRVDQSPSSLSASVGDRVTITCVLTDTSYGLYSTYWYRKNPGSSNKEQISISGRYSESVNKGTKSFTLTISSLQPEDSATYYCRAREARHPWLRQWYDGAGTKVEIKGGGGSGGGGSGGGGSGGGGSGGGGSTRVDQSPSSLSASVGDRVTITCVLTDTSYGLYSTYWYRKNPGSSNKEQISISGRYSESVNKGTKSFTLTISSLQPEDSATYYCRAREARHPWLRQWYDGAGTKVEIKQASGAHHHHHHGAEFEQKLISEEDL , what is its reported kon?
4.3e+06 M⁻¹ s⁻¹
